- assay: Plasma pharmacokinetics of ALM201 in Phase I patients (validated LC-MS/MS, Phoenix WinNonlin)
- experimental.parameters: human, plasma, sc, 40 mg, Plasma concentration, geometric mean (CV%), 40 mg SC, day 18 cycle 2, 1 h after dosing, n = 1; LC-MS/MS
No end group written: not given here.
property.label: level at 1 h (ng/mL)
// return numeric value only (unit: ng/mL, not printed)

Look up level at 1 h: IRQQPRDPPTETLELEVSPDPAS [ALM201]
583

----------
- assay: Plasma pharmacokinetics of ALM201 in Phase I patients (validated LC-MS/MS, Phoenix WinNonlin)
- experimental.parameters: human, plasma, sc, 20 mg, Plasma concentration, geometric mean (CV%), 20 mg SC, day 3 cycle 1, 1 h after dosing, n = 1; LC-MS/MS
No end group written: not given here.
property.label: level at 1 h (ng/mL)
// return numeric value only (unit: ng/mL, not printed)

Look up level at 1 h: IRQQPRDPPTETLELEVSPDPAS [ALM201]
614
